- assay.overview: label from the status in PepcDB records
endpoint: protein production

Answered cases to consult:
primary.sequence | protein production
MDIKKIAQDDKSLGIDESNKDLFQDGILNIALFGVDSREHDNVGRSDSIIIATIDTKHDKIKLTSLMRDSYVEVDGHGKTKLTHAYAYGGPTLALKTINENFGLDIKDYVTVNFDNLAEIIDDLGGVPINIKPYEVKEVNNYAKNVAEIAGREYTPVSEGEQVLNGAQAVGYSRIRYVGDGDYERTERQRNVLDAIIKKLSALKPSEYPETIKKLLPYVETNLTPSKILSIATSVASTGIPPVENMRFPLDGYCKGEMIDGVWYLTFDEAKTKEQIQDYIYKDVNPKLEHHHHHH | failed
MTDWIQNLMDSMGYLGILLLMVLENVFPPIPSELIMPSAGFAAARGDMSLGMVVLMGTLGSVIGTLPLYYIGRAFGEDKLVAWADKHGKWLTLSGKDIKKADAWFDRYGAGAVLFGRMVPGIRSLLSLPAGMSEMPLPKFLIYSAIGSALWSAALAYAGYALGENYDRVEQYVAPVSKVIVGLLVIGAAAWFIRRKREQGSRTGG | failed
MNKEEQEDPQQEQISTVQENDPRNLQQLGMLLVSPGLDEDRLSEKMISKIKKSRDIEKNQKLLISRLSQKEEDHSGKPPTITTSPAEKTVPFKSLNHSLKRKRVPPALNFSDIQASSHLHGSKSAPPNITRFPQHKNSLRVRYMGRMAPTNQDYHPSVANSYMTATYPYPYTGLPPVPCYPYSSTPTQTHAYEGYYSPMYPGPLYNNGIIPADYHAKRKKLAGRSPHLEDLTSRKRTFVSKHHNGDPIISKTDEDIECSVTKNSLSEGASLNDDADDDNDKERIIIGEISLYDDVFKFEVRDDKNDYMKACETIWTEWHNLKK | failed
MVNQNLTATEIGFTHEDFAALLDKYDYHFSPGDVVPGTVFSIEPRGALIDIGAKTAAYIPIQEMSINRVDAPEEVLQSNETREFFILTDENEDGQLTLSIRRIEYMRAWERVRQLQAEDATVRSGVFATNRGGALVRIEGLRGFIPGSHISTRKPKEELVGEELPLKFLEVDEERNRLVLSHRRALVERKMNRLEVGEVVIGTVRGIKPYGAFIDIGGVSGLLHISEISHEHIDTPHSVFNVNDEVKVMIIDLDAERGRISLSTKQLEPEPGDMIKNRDLVYDKAEEMAAKYREQLLAKQQGITLPAEGAEDLIEEEIPPATEDAVAEEEIVAVEEIPAAIEE | failed

Query sequence follows.
QUERY: Value lookup for protein production; key = METNQLRGIFYMMAAMLLISVQEALAKYLGQALPVAQVVWARYLGHLVLMIILLWPKNGMSLLKTNKLFIQIARSLILLIDTVLFFFGLTMLGLAEATAIFFTVPLLVLLLSIPLLGERVSASSIVAVIVGFIGTLIIVRPGINGLGSSDLGIGALFIFGAACCTAIYNVTTRKLSASEPIPVTLFYTAIVGAVVTSLFLPFIWETPTSLEVWAALIFIGLFGGSAHSLIIISHKYAAATTVAPFIYSQIFWALGLGWLMFGELPDFYVYFGGAIVISSGLYLFYHGRTRVNTASQQLGKDPLLVNAAKIKALQNRP
RESULT: failed

###

- assay.overview: label from the status in PepcDB records

primary.sequence | protein production
MSGKTSITSRSDEFQRQIDHKEMPRDHQIERHTHIHTTRYRGGSLVEEVIEKLERFKVRTVNILVGGEDDEQKK | failed
MVGIRKRKDFFEEFGSELFDNLEEMIEALLEDMGESVPFVYGFSIIRRPGEDPELREFGNISENSEDEENPFPSEIRDPLIDIFESEELIHVLAEIPEIEKEDLLLHATAQNLEIRILGASEYSQDIELPARVDPKSAKASYKNGVLEVTFKRCTEEMPVEIEIN | failed

###

- assay.overview: label from the status in PepcDB records

primary.sequence | protein production
MGTSSDPIQDGSDEQQKRSEIYTYEAPWHIYAMNWSVRRDKKYRLAITSLLEQYPNRVEIVQLDESNGEIRSDPNLSFEHPYPPTKTIFIPDKECQRPDLLATSSDFLRLWRIADDHSRVELKSCLNSNKNSEFCGPLTSFDWNEAEPRRIGTSSTDTTCTIWDIEREAVDTQLIAHDKEVFDIAWGGVGVFASVSADGSVRVFDLRDKEHSTIIYESSEPDTPLVRLGWNKQDPRYMATIIMDSAKVVVLDIRFPALPVVELQRHQASVNAIAWAPHSSCHICTAGDDSQALIWDISSMGQHVEGGLDPILAYTAGAEIEQLQWSSSQPDWVAIAFSTKLQILRV | failed
MIWMAEIEGIYTIWLREMKRFFRYRSRIVTSIVTPLLWLIIFGTGLGAAVRFGGVPGGYKAFIYPGIIGQTVLFTSIFSGVSVIIDRQYGFLKEILVAPISRESMVVGKALGISTASMIQAAILLALSFIVGITMSPQCFIVSMVIALIISMGLGGLGLVIAAFTDSMEGFNLIMSFIVLPIFLLSGALFPITGLPAWLQGAVYINPLTYAVDALRFTILRRSVLPLEVNLLVITIFAVIAVLIAAFLFNRKEQNLM | failed
MRILLATDGSPQARGAEALAEWLAYKLSAPLTVLFVVDTRLARIPELLDFGALTVPVPVLRTELERALALRGEAVLERVRQSALAAGVAVEAVLEEGVPHEAILRRARAADLLVLGRSGEAHGDGFGGLGSTADRVLRASPVPVLLAPGEPVELEGALLGYDASESAVRALHALAPLARALGLGVRVVSVHEDPARAEAWALEAEAYLRDHGVEASALVLGGDAADHLLRLQGPGDLLALGAPVRRLVFGSTAERVIRNAQGPVLTAR | failed

###

- assay.overview: label from the status in PepcDB records
endpoint: protein production

primary.sequence | protein production
MTDIRKAATLVVIRDGANKDIEVLVVRRAKTMRFLPGFVAFPGGAADPSDAEMAKRAFGRPVCAEDDDDPALAVTALRETAEEIGWLLAVRDGEGTKMDTPLAPDEQADLCKGGDALSAWLSARGLAFDLGLLRRIGRFVTPPTQPVRFDTRFFLCVGQHLGEPRLHGAELDAALWTPARDMLTRIQSGELPAVRPTIAVLKALVACPNAEIAMSTLSIGPLPPPAPRA | not failed
MKLMQIRKPLLKSSLLDQNLTEEEVNMKFVQDLLNWVDEMQVQLDRTEWGSDLPSVESHLENHKNVHRAIEEFESSLKEAKISEIQMTAPLKLSYTDKLHRLESQYAKLLNTSRNQERHLDTLHNFVTRATNELIWLNEKEESEVAYDWSERNSSVARKKSYHAELMRELEQKEESIKAVQEIAEQLLLENHPARLTIEAYRAAMQTQWSWILQLCQCVEQHIQE | not failed
MYKVGIVLFDDFTDVDFFLMNDLLGRTSDSWTVRILGTKPEHHSQLGMTVKTDGHVSEVKEQDVVLITSGYRGIPAALQDENFMSALKLDPSRQLIGSICAGSFVLHELGLLKGKKLTTNPDAKAVLQGMGGDVQDLPLVIEGNIATAGGCLSLLYLVGWLAERLFDSVKRKQIQNQLIPAGQMEIFETLISETIQSAESAYEYRSACESDAESLVV | not failed
RRRNQKRANAERERLRQIIDTIPQQVFVKDADGTYTLANKAAAAAHGVAVERLEGATHDEFALSDEQRDFKSDDAAVIENGESVHIEEDGLVEADGSSHTVQTDIVPIEIASGERRALVVATDIT | failed
MKICHRYIAWQVLTGMVIATAILLPLFSFFDLLDQLDDVGKGTYTTWDAFLYTVMLMPRRFIQIAPFIALLGTVGALGALAVNLELVAMRVAGLSPLMIGLAPVGIGGLLIASTIALEYFVAPQFQQQATILRAVALEQGAELGKGLGIWTRNERNILRIGEMLHKGRATDIEVIHFDGEGSMTAHVHAWYADIFDESLWKLHDVTIRTFSPDRITSRKAHILQWHSFLGPDDIATLTKSPESLTPIELVKHAEFLRATGQKADAYVMALWRKVGGAIMTIAMILVAIPFIFGSVREGLGGKLILAALMGISIYLFDQIIANIGLVFQLNPIVVSVVPGMVLIAVAAHWLLRRTF | failed

QUERY: State the recorded protein production for this entry: MIGIVMLSKIANIDAARQGLDLKVKVLSLNKKTIKNDRGETTYFYGIIGDDTGTVSFTAWSFPAAVKSGDVVEIKNCYSSLYNGKIRIYVDSRSQVVLKPDEYLEVKRTVELVKLRDLSLTTPYVSVIGRISGIKEKNYDSDRGSKIVYQGFIEDETAKVRISSFGKPLKDGEIVRVENARVSQYNGYMGISIGENSSIDNVQAQIEVGSRPIFIAEIKSPIGGVTITGFAVSVGQGSRIFTKCSICKKILEDGKCKDHPRAPVYLDIFGYFLLSDGTGSLTCYLNKDSFLPYIKMDTEEFKSQAFSMNPNMLIKKNILGKCLSVTGDLRLRDDKITMNASSIKEADADSVKDIEKTIQEEFQLEHHHHHH
RESULT: failed

QUERY: Data request, read-out protein production, for MSQQNTELEGIGKLRSGSLFMILAVLLAAIGILVIISAGMLGGMFSAASGNVSGVIASGIGLLVGIAIVILIGAIIGLIGILRIRSGFGILKSLGRDVGIGEIGTTLYLVGLIIIIIGALLTIVLIGFPILILGEIIALIGGILIGIGFYKVGEIYNEGLVKIGGILIVIPIDLINFVGFILAYVGLGKVRPLPTVAQQPLVPQVYQVGQGTIRNNGYAYITLYSSTPASIISAKIEGANIMSSAINPTVLQIGNNEVTIFFGNVQSLAPNTTYIITLTINIGGNIINISTTAVYQP
RESULT: failed
